Biological target: CEGPCR12h receptor (Caenorhabditis elegans)
Sequence (Q20275 1-402): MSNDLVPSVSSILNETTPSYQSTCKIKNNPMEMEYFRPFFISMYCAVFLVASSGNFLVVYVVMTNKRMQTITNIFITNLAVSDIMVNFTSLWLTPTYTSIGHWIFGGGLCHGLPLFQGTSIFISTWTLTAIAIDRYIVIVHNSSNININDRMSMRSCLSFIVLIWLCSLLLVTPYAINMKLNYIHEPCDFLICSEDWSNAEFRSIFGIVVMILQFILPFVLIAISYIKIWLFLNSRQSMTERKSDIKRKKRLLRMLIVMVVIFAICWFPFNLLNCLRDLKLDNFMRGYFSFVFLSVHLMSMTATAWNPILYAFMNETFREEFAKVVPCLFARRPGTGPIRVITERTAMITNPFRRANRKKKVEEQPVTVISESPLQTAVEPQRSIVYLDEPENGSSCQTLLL
Experiment: [35S]GTPγS binding assay, CEGPCR12h expressed in CHO cells
Type: biochemical, C. elegans
Details: EC50
Where no end group is shown, it is not given here.
Recorded Endpoint: pEC50
Scale for pEC50: -log10 of concentration given in mol/L; no unit attached.

Which value of pEC50 has been reported for PDVDHVFLRF-NH2 [PDVDHVFLRF-NH2] in the records?
6.48
